Observed IC50, system MMP-3CD (catalytic domain of stromelysin-1) (Homo sapiens, UniProt P08254).

Which value of IC50 has been reported for COc1cccc(CNC(=O)c2cccc(C(=O)NCc3cccc(OC)c3)c2)c1 in the records?
> 100 µM

====

biological target: MMP-13CD (catalytic domain of collagenase-3) (Homo sapiens, UniProt P45452)
parameter: IC50 (µM)
Only the number, expressed in µM, is required.

For the record COc1ccc(C(=O)OCc2ccncc2)cc1C(=O)OCc1ccncc1 , what value of IC50 is listed for MMP-13CD (catalytic domain of collagenase-3) (Homo sapiens, UniProt P45452)?
0.255

====

Here, each record is paired with measured melting point data.

Use these answered entries as a reference point.
| compound smiles | melting point |
| --- | --- |
| O=C(OCc1cccc(F)c1)c1cccc(C(=O)OCc2cccc(F)c2)c1 | 81 to 82 °C |
| O=C(OCc1ccc2c(c1)OCO2)c1cccc(C(=O)OCc2ccc3c(c2)OCO3)c1 | 109 to 110 °C |
| O=C(NCc1ccc(Cl)cc1)c1cccc(C(=O)NCc2ccc(Cl)cc2)c1 | 136 to 138 °C |

# next molecule below
Which value of melting point has been reported for O=C(NCc1cccc(F)c1)c1cccc(C(=O)NCc2cccc(F)c2)c1 in the records?
138 to 140 °C

====

Here, each record is paired with measured IC50 data.
Molecular target: MMP-1FL (full length interstitial collagenase) (Homo sapiens, UniProt P03956)
Sequence (P03956 100-469): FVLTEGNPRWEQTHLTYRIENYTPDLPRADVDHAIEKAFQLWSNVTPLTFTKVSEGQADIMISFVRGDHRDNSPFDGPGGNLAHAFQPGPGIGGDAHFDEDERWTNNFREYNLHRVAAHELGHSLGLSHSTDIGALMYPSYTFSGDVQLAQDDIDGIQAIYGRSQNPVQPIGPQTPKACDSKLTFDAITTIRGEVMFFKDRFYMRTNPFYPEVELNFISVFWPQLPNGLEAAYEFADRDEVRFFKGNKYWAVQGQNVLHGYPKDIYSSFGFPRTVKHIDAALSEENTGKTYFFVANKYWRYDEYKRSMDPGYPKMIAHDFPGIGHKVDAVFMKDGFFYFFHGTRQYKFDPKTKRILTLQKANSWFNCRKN

Use these answered entries as a reference point.
| compound smiles | IC50 |
| --- | --- |
| COc1ccc(C(=O)OCc2ccc3nsnc3c2)cc1C(=O)OCc1ccc2nsnc2c1 | 30 µM |
| COc1cccc(CNC(=O)c2cccc(C(=O)NCc3cccc(OC)c3)c2)c1 | > 100 µM |
| O=C(OCc1ccc2nsnc2c1)c1cccc(C(=O)OCc2ccc3nsnc3c2)c1 | > 100 µM |

Which value of IC50 has been reported for O=C(NCc1ccc2c(c1)OCO2)c1cccc(C(=O)NCc2ccc3c(c2)OCO3)c1 in the records?
> 100 µM

Which value of IC50 has been reported for COc1ccc(C(=O)OCc2ccncc2)cc1C(=O)OCc1ccncc1 in the records?
> 100 µM

====

target: MMP-3CD (catalytic domain of stromelysin-1) (Homo sapiens); experiment: Thiopeptolide substrate hydrolysis assay, MMP-3CD; format: biochemical; conditions: 50 mM MES pH 6.0
Sequence (P08254 100-272 limits assumed): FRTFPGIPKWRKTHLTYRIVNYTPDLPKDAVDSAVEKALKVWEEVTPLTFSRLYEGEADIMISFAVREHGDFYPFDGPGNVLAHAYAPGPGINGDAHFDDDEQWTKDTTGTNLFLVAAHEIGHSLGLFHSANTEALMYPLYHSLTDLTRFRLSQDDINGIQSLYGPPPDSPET
pIC50: −log10 of the molar value.
Here, each record is paired with measured pIC50 data.

| compound smiles | test result |
| --- | --- |
| COc1ccc(C(=O)OCc2ccncc2)cc1C(=O)OCc1ccncc1 | < 4.00 |

Which value of pIC50 has been reported for O=C(OCc1ccc2nsnc2c1)c1cccc(C(=O)OCc2ccc3nsnc3c2)c1 in the records?
< 4.52

Which value of pIC50 has been reported for CCOc1ccc(C(=O)NCc2cccc(OC)c2)cc1C(=O)NCc1cccc(OC)c1 in the records?
< 4.00

====

parameter: melting point

| compound | melting point |
| --- | --- |
| COc1cccc(COC(=O)c2cccc(C(=O)OCc3cccc(OC)c3)c2)c1 [Example 13] | 68 to 70 °C |
| O=C(NCc1cccc(Cl)c1)c1cccc(C(=O)NCc2cccc(Cl)c2)c1 [Example 18] | 128 to 130 °C |
| COc1ccc(COC(=O)c2cccc(C(=O)OCc3ccc(OC)cc3)c2)cc1 [Example 12] | 90 to 92 °C |

Which value of melting point has been reported for COc1ccc(CNC(=O)c2cccc(C(=O)NCc3ccc(OC)cc3)c2)cc1 [Example 16] in the records?
175 to 176 °C
